Measured values drawn from patent US7919468B2 for this set.

Catalogue of PA % inhibition (at 100 μM) readings, one per entry.
- tested_target: rabbit 20S proteasome, post-acid (PA) activity (Oryctolagus cuniculus)
- Construct: other: 100 μM compound, pH 7.5, 30° C; other: pH 7.5, 30° C
- Sequence (A0A5F9DQW2 1-212): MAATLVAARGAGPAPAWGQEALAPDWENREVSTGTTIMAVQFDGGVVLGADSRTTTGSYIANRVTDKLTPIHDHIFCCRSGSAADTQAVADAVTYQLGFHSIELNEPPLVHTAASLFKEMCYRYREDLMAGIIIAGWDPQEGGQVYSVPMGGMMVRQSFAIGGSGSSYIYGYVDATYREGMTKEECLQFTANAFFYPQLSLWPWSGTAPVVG
- test_details: Rabbit 20S proteasome fluorescent assay, post-acid activity (Z-LLE-βNA)
- Type: biochemical
- condition_info: 100 μM compound, pH 7.5, 30° C.
API: value field is a number in %; no unit string.

Completed entries (count: 2):
**Q:** Sample CC(C)(C)OC(=O)N[C@@H](Cc1ccc(OCc2ccccc2)cc1)C(=O)N[C@@H](CC(N)=O)C(=O)N[C@@H](Cc1c[nH]c2ccccc12)C(=O)Nc1ccc(O)cc1 [SP318C, N-Boc-Tyr(Bn)-Asn-Trp-NH(4-OH)Ph] — what was its PA % inhibition (at 100 μM)?
**A:** 66

**Q:** Sample CCOC(=O)[C@H](Cc1c[nH]c2c(Br)cccc12)NC(=O)[C@H](CC(C)C)NC(=O)[C@H](Cc1ccc(OC)c(I)c1)NC(=O)OC(C)(C)C — what was its PA % inhibition (at 100 μM)?
**A:** 17

Continuing:
**Q:** Sample CC(C)(C)OC(=O)N[C@@H](Cc1ccc(OCc2ccccc2)cc1)C(=O)NCC(=O)N[C@@H](CC1C(=O)Nc2ccccc21)C(=O)NCc1ccccc1 (stereo partly drawn) [NR15, Boc-Tyr(Bn)-Gly-Trp[O]—NHCH2Ph] — what was its PA % inhibition (at 100 μM)?
**A:** 87

**Q:** Sample CC(C)C[C@H](NC(=O)[C@H](Cc1ccc(OCc2ccccc2)cc1)NC(=O)OC(C)(C)C)C(=O)N[C@@H](CC1C(=O)Nc2ccccc21)C(=O)Nc1ccccc1 (stereo partly drawn) [JV602, Boc-Tyr(Bn)-Leu-Trp[O]—NHPh] — what was its PA % inhibition (at 100 μM)?
**A:** 26

**Q:** Sample COC(=O)[C@H](Cc1c[nH]c2c(Br)cccc12)NC(=O)[C@H](CC(N)=O)NC(=O)[C@H](Cc1ccc(OCc2ccccc2)c(I)c1)NC(=O)OC(C)(C)C — what was its PA % inhibition (at 100 μM)?
**A:** 45
